B1: GAGE1 (parent)
chain: RPRRYVQPPEMIGPMRPEQFSDEV

# Variants of: B1
# experimental protocol: protein stability index of a GFP-peptide fusion (GPS, HEK-293T) (PSI 1-6); higher = more stable;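 note: lentivirally expressed fusions sorted by FACS into six bins by GFP to DsRed ratio, PSI derived from sequencing read proportions per bin multiplied by bin number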
# condition set: c terminus: a fixed tail appended
Readings of protein stability index for the listed variants

>  <residue change>
R3P

>  <protein stability index>
4.04

$$$$
>  <residue change>
M15N

>  <protein stability index>
3.97

$$$$
>  <residue change>
R4S

>  <protein stability index>
4.05

$$$$
